# TARGET UNDER TEST: GPIIb/IIIa (human, UniProt P08514)
# PROTOCOL TEXT: competitive binding on HEL 92.1.7 cells, radioiodinated mouse C4G1 as tracer
# maps each entry to its Ka

• humanized C4G1 antibody (antibody, V domains shown) VH: QVQLVQSGAEVKKPGSSVKVSCKASGYAFTNYLIEWVRQAPGQGLEWIGVIYPGSGGTNYNEKFKGRVTLTVDESTNTAYMELSSLRSEDTAVYFCARRDGNYGWFAYWGQGTLVTVSS VL: DIQMTQTPSTLSASVGDRVTISCRASQDINNYLNWYQQKPGKAPKLLIYYTSTLHSGVPSRFSGSGSGTDYTLTISSLQPDDFATYFCQQGNTLPWTFGQGTKVEVKR = > 1e+08 M⁻¹
• mouse C4G1 Fab fragment (Fab, V domains shown) VH: QVQLQQSGAELVGPGTSVRVSCKASGYAFTNYLIEWVKQRPGQGLEWIGVIYPGSGGTNYNEKFKGKATLTVDKSSTTAYMQLSSLTSDDSAVYFCARRDGNYGWFAYWGRGTLVTVSA VL: DIQMTQTTSSLSASLGDRVTISCRASQDINNYLNWYQQKPDGIVKLLIYYTSTLHSGVPSRFSGSGSGTDYSLTISNLEQEDIATYFCQQGNTLPWTFGGGTKLEIK = ≥ 1e+08 M⁻¹
• mouse C4G1 antibody (antibody, V domains shown) VH: QVQLQQSGAELVGPGTSVRVSCKASGYAFTNYLIEWVKQRPGQGLEWIGVIYPGSGGTNYNEKFKGKATLTVDKSSTTAYMQLSSLTSDDSAVYFCARRDGNYGWFAYWGRGTLVTVSA VL: DIQMTQTTSSLSASLGDRVTISCRASQDINNYLNWYQQKPDGIVKLLIYYTSTLHSGVPSRFSGSGSGTDYSLTISNLEQEDIATYFCQQGNTLPWTFGGGTKLEIK = ≥ 1e+08 M⁻¹

Here is another binder to look at.
get_value(item= mouse C4G1 F(ab')2 fragment (other) VH: QVQLQQSGAELVGPGTSVRVSCKASGYAFTNYLIEWVKQRPGQGLEWIGVIYPGSGGTNYNEKFKGKATLTVDKSSTTAYMQLSSLTSDDSAVYFCARRDGNYGWFAYWGRGTLVTVSA VL: DIQMTQTTSSLSASLGDRVTISCRASQDINNYLNWYQQKPDGIVKLLIYYTSTLHSGVPSRFSGSGSGTDYSLTISNLEQEDIATYFCQQGNTLPWTFGGGTKLEIK , readout=Ka) returns ≥ 1e+08 M⁻¹
